- assayInfo: soluble on expression in E. coli; label from the status in PepcDB or PDB records
measuredProperty: soluble on expression in E. coli

sequenceRecord	reading
LVDGSLCELRYSWAKIDTYQHVNNFITLNQVKIALAQSRCHNHHLDSTTITVWYDSAFSVMRDLKGIGANHVSGRSHGLTSRRTLLQVERAYQAFKNDQGLLPATYQVCFGVIHL	not soluble
MSEISAIWERIEAWHAANDQTENLNPGATAEALAQAEKDMGLTFPPEMRESLLRHDGSVDDSWPTGELLSLERMADERKVWMDLLQDGTFDGNASHNESSEALQPGWWNPAWIPLDADGGGNGAVIDLAPGPQGTVGQVIDMDHEVGPSGPKYVSLAAYLEAMLERLSEAEE	soluble
MISGLSHITLIVKDLNKTTAFLQNIFNAEEIYSSGDKTFSLSKEKFFLIAGLWICIMEGDSLQERTYNHIAFQIQSEEVDEYTERIKALGVEMKPERPRVQGEGRSIYFYDFDNHLFELHAGTLEQRLKRYHE	soluble
MGSDKIHHHHHHMKHLSLEALRSFSAVIELGSMTLAGERMGRSQPAISLQLKKLEQQLGVELLTRQGSGFALTADGDVLFDYAQRMLALNDQAWAQFEPQQVSGKVRLGITSEFASSLLPKVLGQFAQVYPQVTLQVTSALSKDLLSGLGQQFDIILALREQTNKSDVLIQREELVWVGLPGLLEQPGWPMVVAPEGCIYRRRAEQSLQRAHQPYRITYTNTDFSGLTAALNSGLGITVLAKSTVPKDIPILESFSDNKPLPNPGSVNVIMRLAGGASSAASQLADYLKARI	not soluble
LIIGVTGCPAGIAHTYLAAEALEKGAAALGFEIKVETNGSIGVKNSPSAEEIERAEAIVVACDKQVDMARFAGKRLIKTNVKAPIRDAQKLINEALRAPTY	not soluble
MGSDKIHHHHHHMIPLFDLTRQYERIRGEILNAIDKLISSGNVILGENVRRLEEEIASFTGVKHGVGVASGSDALLIALRAMGVEKGDTVVTTPYTFFATASAPYRLGARVIFVDVDESTFNMDLNQLEHVLKKEKVKAIIPVHLFGRTVDLEALSFLREKYGVMILEDCAQSMGSEWKFSSGEIRKSGSVGDAAIFSFFPTKNLGTYGDGGMIVTNSDEIAEESRILRVHGARKKYFHEKVGYNSRLDEIHAAILRVKLRYLERWTEERTRVARTYQKLFEEKKLPVVYPRVEEKGFRYHVFHQYVVLFENEEVRERVREGLKERGIQTAIYYPLPLHLQKCFRDLGYQEGDFPVAESLSKRSLALPMFPELRDDEIKEVVDTIALFL	not soluble
MKMVTGAVASVLEDEATDTSDSEGSCGSEKDHFYSDDDAIEADSEGDAEPCDKENENDGESSVGTNMGWADAMAKVLNKKTPESKPTILVKNKKLEKEKEKLKQERLEKIKQRDKRLEWEMMCRVKPDVVQDKETERNLQRIATRGVVQLFNAVQKHQKNVDEKVKEAGSSMRKRAKLISTVSKKDFISVLRGMDGSTNETASSRKKPKAKQTEVKSEEGPGWTILRDDFMMGASMKDWDKESDGPDDSRPESASDSDT	not soluble
